Experimental target: D-malate dehydrogenase (MDH) (Acinetobacter baumannii, UniProt A0ABX6CCN1)
Construct: N-terminal His-tag fusion, tetramer
Sequence (A0ABX6CCN1 1-370): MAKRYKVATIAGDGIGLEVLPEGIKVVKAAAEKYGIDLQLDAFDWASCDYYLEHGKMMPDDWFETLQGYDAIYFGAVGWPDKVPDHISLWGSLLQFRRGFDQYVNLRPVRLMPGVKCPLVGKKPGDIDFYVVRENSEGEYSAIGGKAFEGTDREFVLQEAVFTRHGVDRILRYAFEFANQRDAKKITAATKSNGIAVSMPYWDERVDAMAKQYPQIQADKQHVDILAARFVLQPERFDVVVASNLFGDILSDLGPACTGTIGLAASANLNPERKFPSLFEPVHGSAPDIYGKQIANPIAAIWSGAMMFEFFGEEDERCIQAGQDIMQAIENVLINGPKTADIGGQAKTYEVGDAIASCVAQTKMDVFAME
Assay method text: spectroscopic NADH formation assay ([…] nm) with D-malate, varied inhibitor concentrations
Measured property: Ki (µM)
# value in µM; strip the unit string

Short answer for O=C(O)C(O)C(O)C(=O)O (stereo not drawn) [meso-tartrate] : Ki was 320
